Origin of measurements: patent US20190248902A1

Attribute: FACS Binding Geomean
- TEST TARGET: T1, human ASGR-1 (wild type) (human, UniProt P07306 1-291)
- T1 construct: also called wt ASGR1; huASGR-1
- T1 sequence: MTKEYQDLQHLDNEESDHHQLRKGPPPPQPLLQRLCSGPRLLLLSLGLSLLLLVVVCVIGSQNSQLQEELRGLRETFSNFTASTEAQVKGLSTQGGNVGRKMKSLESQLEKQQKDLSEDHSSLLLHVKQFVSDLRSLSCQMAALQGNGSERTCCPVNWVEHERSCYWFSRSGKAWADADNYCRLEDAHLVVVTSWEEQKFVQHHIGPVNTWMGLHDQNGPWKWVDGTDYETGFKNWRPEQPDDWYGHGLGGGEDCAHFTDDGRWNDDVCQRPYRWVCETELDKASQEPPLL
- EXPERIMENT DESCRIPTION: FACS, transfected CHO-S cells, mAb 5 ug/ml
EXPERIMENTAL READOUT: FACS Binding Geomean

>>> test_result("4A2 (antibody, V domains shown, mAb) VH: QVQLVQSGTEVKKPGASVKVSCKASGYTFTNYDINWVRQATGQGLEWMGWMHPNSGNTGYAQKFQGRVTLTRNTSISTAYMELSSLRSEDTAVYYCASSSGWYYFDYWGQGTLVTVSS VL: DIVMTQSPDSLAVSLGERATINCKSSQSILHSSNNNNYLAWFQQKPGQPPKLLLYWASTRESGVPDRFSGSGSGTDFTLTISSLQPEDVAVYYCQQYYNTPVTFGPGTKVGIK")
41100
>>> test_result("213B3 (antibody, V domains shown, mAb) VH: QVQLVESGGGVVQPGRSLRLSCAASGFTFSSYGMHWVRQAPGKGLEWVAVIWYDGSNKNYADSVKGRFTISRDNSKNTLYLQMNSLRAEDTAVYYCARDRTVGYDGFDIWGQGTMVTVSS VL: DIQMTQSPSSLSASVGDRVTITCRASQGIGKYLAWFQQKPGKAPKSLISAASSVLSGVPSKFSGSGSGTDFTLTISSLQPEDFATYYCQKYDTYPFTFGPGTKVDIK")
15100
>>> test_result("191G1 (antibody, V domains shown, mAb) VH: QVQLVESGGGVVQPGRSLRLSCAASGFTFSSYGMHWVRQAPGKGLEWVAVIWYDGSNEHYADSVKGRFTISRDNSKNTLYLQMNSLRAEDTAVYYCARDRGVGYYGLDVWGQGTTVTVSS VL: DIQMTQSPSSLSASVGDRVTITCRASQGISNYLAWFQQKPGKAPKSLIYAASSLQSGVPSKFSGSGSGTDFTLTISSLQPEDFATYYCQHYLTYPLTFGGGTKVEIK")
25300
